measured-parameter: melting point

Solved cases below.
Give its melting point value. Item: O=C1c2cccc(NC(=S)Nc3cc[nH]n3)c2C2CCCCN12 (stereo unspecified)
208 °C

Give its melting point value. Item: CCOC(=O)C(=Cc1cccn2c(Br)cnc12)N=[N+]=[N-]
90 to 92 °C

Give its melting point value. Item: O=C1CCCc2ncccc2N1
156 to 159 °C

Give its melting point value. Item: O=S(=O)(Nc1cccc(CCOCc2cccc(-c3ccc(F)cc3)n2)c1)C(F)(F)F
71 to 73 °C

Give its melting point value. Item: CC(=O)OC1=C(c2ccc(C)cc2)Sc2cc(C)ccc2NC1=O
233 to 235 °C

Give its melting point value. Item: COc1cc2c(cc1-c1cc(F)ccc1F)NC(=O)CC(c1cccc(-n3ccnn3)c1)=N2
241 °C

Give its melting point value. Item: Nc1cc(F)cc2cc(C(=O)NCC(F)(F)C(F)(F)C(F)(F)F)cnc12
202 to 204 °C

Give its melting point value. Item: Cc1c(CC(=O)NCCCO[N+](=O)[O-])cc(-c2ccc(S(C)(=O)=O)cc2)n1-c1ccc(F)cc1
127 °C

Give its melting point value. Item: CC(C)N1C(=O)C2CC2(c2ccc(N)cc2)C1=O (stereo unspecified)
160 to 163 °C

Give its melting point value. Item: COC(=O)c1ccc2c(c1)N(C(=O)c1ccc(-c3ccccc3C(F)(F)F)c(C)c1)Cc1cccn1C2
180 to 182 °C

Next molecule, melting point to be filled in.
Give its melting point value. Item: COC1(c2cc(F)cc(S(=O)(=O)c3ccc4c(c3)OCCC4=NO)c2)CCOCC1
209 to 210 °C
